Provide the recorded % inhibition of SMAD7 mRNA expression for the entries that follow.
# Test system: human SMAD7 mRNA
# assay_protocol: Dose-dependent inhibition of human SMAD7 mRNA expression in Hep3B cells, comparison with ION 28453 (Example 4)
# Assay type: cell-based
# experimental_setup: electroporation, 0.74 μM, approximately 16 hours
Strand notation (5' to 3'): a small letter for the sugar, then the base; units joined by * are phosphorothioate-linked, units joined directly phosphodiester-linked; [ ] holds rarer units or linkages, { } end groups; capitals alone tell only the bases. k = constrained ethyl (cEt); [5mC] = 5-methylcytosine; d = 2'-deoxy (DNA)
The figure you give is taken to be in %; do not add the unit.

Check the records and state % inhibition of SMAD7 mRNA expression for 772568 (antisense kA*kG*k[5mC]*d[5mC]*dT*d[5mC]*dT*dT*dG*dA*d[5mC]*dT*dT*k[5mC]*k[5mC]*kG) [compound 772568]
0

Check the records and state % inhibition of SMAD7 mRNA expression for 801051 (antisense kG*kT*kG*dT*dT*d[5mC]*dA*dA*d[5mC]*dA*dA*dT*dG*k[5mC]*kT*kT) [compound 801051]
10

Check the records and state % inhibition of SMAD7 mRNA expression for 800821 (antisense kG*k[5mC]*kT*dA*dA*dA*dT*dT*dT*d[5mC]*d[5mC]*dA*dA*kT*kG*kA) [compound 800821]
30

Check the records and state % inhibition of SMAD7 mRNA expression for 799184 (antisense kA*kA*k[5mC]*d[5mC]*dT*dT*dT*dG*dT*dA*dG*dT*dT*kA*kG*kA) [compound 799184]
10

Check the records and state % inhibition of SMAD7 mRNA expression for 798781 (CGTAAGATTCACAGCA; 3-10-3 cEt gapmer, further chemistry not given here) [compound 798781]
38

Check the records and state % inhibition of SMAD7 mRNA expression for 801040 (antisense kG*kT*k[5mC]*dA*dT*dG*dA*dA*dA*dG*dA*dT*dT*k[5mC]*kT*kT) [compound 801040]
44

* * *

# Test system: human SMAD7 mRNA
# assay_protocol: Dose-dependent inhibition of human SMAD7 mRNA expression in Hep3B cells (Example 3, Study 1 and 2)
# Format: cell-based
# experimental_setup: electroporation, Study 2 (740-20000 nM)
Strand notation (5' to 3'): a small letter for the sugar, then the base; units joined by * are phosphorothioate-linked, units joined directly phosphodiester-linked; [ ] holds rarer units or linkages, { } end groups; capitals alone tell only the bases. k = constrained ethyl (cEt); [5mC] = 5-methylcytosine; d = 2'-deoxy (DNA)
readout_name: pIC50
pIC50 here is simply -log10 of the concentration when that concentration is written in mol/L.

Check the records and state pIC50 for 798687 (antisense kG*kG*k[5mC]*dG*dA*dG*dG*dA*dG*dG*d[5mC]*dG*dA*kG*kG*kA) [compound 798687]
5.15

Check the records and state pIC50 for 799556 (kA*k[5mC]*kA*dA*d[5mC]*dA*dA*dT*dG*d[5mC]*dT*d[5mC]*dT*kG*kG*k[5mC]; antisense) [compound 799556]
5.70

Check the records and state pIC50 for 829864 (antisense kG*kG*kG*dT*dA*dA*d[5mC]*dT*dG*d[5mC]*dT*dG*d[5mC]*kG*kG*kT) [compound 829864]
6.00

Check the records and state pIC50 for 799412 (antisense kT*kT*k[5mC]*dT*dT*dA*d[5mC]*dA*d[5mC]*dA*dG*d[5mC]*dA*kG*k[5mC]*kG) [compound 799412]
5.40

Check the records and state pIC50 for 799854 (kG*k[5mC]*k[5mC]*dA*dA*dG*dT*dG*dT*d[5mC]*d[5mC]*dA*dT*k[5mC]*kA*kA; antisense) [compound 799854]
5.30

Check the records and state pIC50 for 830180 (antisense k[5mC]*kG*kT*dG*dT*dA*d[5mC]*d[5mC]*d[5mC]*dA*dG*d[5mC]*dT*kG*k[5mC]*k[5mC]) [compound 830180]
5.10

Check the records and state pIC50 for 830097 (k[5mC]*k[5mC]*kA*dT*d[5mC]*dT*dA*dA*d[5mC]*dA*dA*d[5mC]*dA*kT*k[5mC]*k[5mC]; antisense) [compound 830097]
6.00

Check the records and state pIC50 for 799718 (antisense k[5mC]*kT*kG*d[5mC]*dT*dA*dG*dG*dG*dA*dT*dA*d[5mC]*kT*kG*kA) [compound 799718]
5.40

Check the records and state pIC50 for 799589 (kA*kA*kT*dA*dT*d[5mC]*dT*dG*dT*dG*dT*d[5mC]*dT*kA*k[5mC]*kA; antisense) [compound 799589]
5.40

Check the records and state pIC50 for 799404 (antisense kG*kG*kA*dA*d[5mC]*dA*dT*dT*dT*dA*d[5mC]*d[5mC]*d[5mC]*k[5mC]*kT*kG) [compound 799404]
5.70

Check the records and state pIC50 for 799858 (kG*kT*kA*dA*dT*dT*dT*dA*dG*d[5mC]*dA*dA*dT*kT*k[5mC]*k[5mC]; antisense) [compound 799858]
5.70

Check the records and state pIC50 for 799364 (kT*k[5mC]*k[5mC]*dG*dA*dG*dT*dT*dA*dT*d[5mC]*d[5mC]*d[5mC]*k[5mC]*kA*kT; antisense) [compound 799364]
5.52

Check the records and state pIC50 for 799382 (antisense kA*k[5mC]*kT*dT*dT*dT*dA*dG*d[5mC]*dA*dA*dA*d[5mC]*kA*kG*kA) [compound 799382]
5.52

Check the records and state pIC50 for 799366 (antisense kT*k[5mC]*kT*d[5mC]*d[5mC]*dG*dA*dG*dT*dT*dA*dT*d[5mC]*k[5mC]*k[5mC]*k[5mC]) [compound 799366]
5.10

Check the records and state pIC50 for 799369 (antisense kA*k[5mC]*kT*d[5mC]*dA*d[5mC]*dT*dA*dA*dG*dT*d[5mC]*dT*k[5mC]*k[5mC]*kG) [compound 799369]
5.22

Check the records and state pIC50 for 830100 (kG*kG*kA*dG*d[5mC]*dT*d[5mC]*dA*dA*dA*d[5mC]*dT*dT*kT*kG*kA; antisense) [compound 830100]
5.70

Check the records and state pIC50 for 799143 (antisense kT*kG*kG*dG*dT*dT*dA*dT*dG*dA*d[5mC]*dG*dG*kA*k[5mC]*k[5mC]) [compound 799143]
5.70

Check the records and state pIC50 for 790476 (kT*kT*k[5mC]*dT*dT*dG*dA*dG*d[5mC]*dA*d[5mC]*d[5mC]*dG*kA*kG*kT; antisense) [compound 790476]
5.30

Check the records and state pIC50 for 830138 (antisense kG*kG*kA*dG*dT*dT*dG*d[5mC]*dA*dT*dG*d[5mC]*d[5mC]*kT*kT*kT) [compound 830138]
5.30

Check the records and state pIC50 for 830010 (antisense kG*kT*k[5mC]*dT*d[5mC]*dA*dA*dA*dT*dG*dG*dG*d[5mC]*kT*kT*k[5mC]) [compound 830010]
6.00

Check the records and state pIC50 for 829734 (antisense kT*k[5mC]*k[5mC]*dG*d[5mC]*dA*d[5mC]*dA*d[5mC]*d[5mC]*dA*dT*dG*kA*kA*kG) [compound 829734]
5.40

* * *

# Test system: human SMAD7 mRNA
# assay_protocol: Antisense inhibition of human SMAD7 mRNA expression in Hep3B cells by 5-10-5 MOE gapmers, single concentration, electroporation, RT-PCR (Example 1, Study 1 and 2)
# Assay type: cell-based
# experimental_setup: electroporation, 5,000 nM, approximately 24 hours, relative to untreated control cells, gapmers targeting SEQ ID NO: 1 and 2
Strand notation (5' to 3'): a small letter for the sugar, then the base; units joined by * are phosphorothioate-linked, units joined directly phosphodiester-linked; [ ] holds rarer units or linkages, { } end groups; capitals alone tell only the bases. e = 2'-O-(2-methoxyethyl) (MOE); [5mC] = 5-methylcytosine; d = 2'-deoxy (DNA)
Provide the recorded % inhibition of SMAD7 mRNA expression for the entries that follow.
The figure you give is taken to be in %; do not add the unit.

Check the records and state % inhibition of SMAD7 mRNA expression for 771715 (antisense eA*eG*eT*e[5mC]*eT*d[5mC]*d[5mC]*dG*dA*dG*dT*dT*dA*dT*d[5mC]*e[5mC]*e[5mC]*e[5mC]*eA*eT) [compound 771715]
68

Check the records and state % inhibition of SMAD7 mRNA expression for 483665 (antisense eG*e[5mC]*eG*eA*eA*d[5mC]*dA*dT*dG*dA*d[5mC]*d[5mC]*dT*d[5mC]*d[5mC]*eG*e[5mC]*eA*e[5mC]*eA) [compound 483665]
10

Check the records and state % inhibition of SMAD7 mRNA expression for 771883 (antisense eA*eG*e[5mC]*eT*eG*dG*d[5mC]*dA*d[5mC]*dT*dG*dA*dA*dT*dG*e[5mC]*eT*eG*eA*eT) [compound 771883]
0

Check the records and state % inhibition of SMAD7 mRNA expression for 483663 (antisense e[5mC]*eA*eG*e[5mC]*e[5mC]*dT*d[5mC]*dT*dT*dG*dA*d[5mC]*dT*dT*d[5mC]*e[5mC]*eG*eA*eG*eG) [compound 483663]
47

Check the records and state % inhibition of SMAD7 mRNA expression for 771811 (antisense eT*eG*e[5mC]*e[5mC]*eT*d[5mC]*dA*dT*dT*d[5mC]*dT*dT*dT*d[5mC]*d[5mC]*eA*eG*eG*eA*e[5mC]) [compound 771811]
48

Check the records and state % inhibition of SMAD7 mRNA expression for 771707 (antisense eT*eT*eG*eT*eT*d[5mC]*d[5mC]*dT*d[5mC]*dT*dG*d[5mC]*dA*d[5mC]*d[5mC]*e[5mC]*eT*eG*eG*eG) [compound 771707]
0

Check the records and state % inhibition of SMAD7 mRNA expression for 771350 (antisense eT*eT*eT*eG*e[5mC]*d[5mC]*d[5mC]*d[5mC]*dA*dA*dA*dA*d[5mC]*dT*d[5mC]*e[5mC]*eA*eA*eA*eG) [compound 771350]
68

Check the records and state % inhibition of SMAD7 mRNA expression for 771747 (antisense eG*eT*eG*eT*eG*dT*dT*dT*d[5mC]*dA*dA*dA*dG*dG*dA*eA*eA*eA*eG*e[5mC]) [compound 771747]
2

Check the records and state % inhibition of SMAD7 mRNA expression for 771867 (antisense eA*e[5mC]*eT*eG*eG*dG*d[5mC]*dT*dT*d[5mC]*dA*dG*d[5mC]*dA*dA*eA*eG*eA*eT*eA) [compound 771867]
39

Check the records and state % inhibition of SMAD7 mRNA expression for 771374 (antisense eA*eG*e[5mC]*eA*eT*dG*dA*dA*dA*dG*dA*d[5mC]*dA*dA*dA*e[5mC]*e[5mC]*eA*e[5mC]*eA) [compound 771374]
44

Check the records and state % inhibition of SMAD7 mRNA expression for 771819 (antisense eA*eA*eT*eA*eG*dT*dT*dT*dT*d[5mC]*dT*d[5mC]*dT*d[5mC]*dA*eA*eA*eT*eG*eT) [compound 771819]
56

Check the records and state % inhibition of SMAD7 mRNA expression for 771755 (antisense eA*eA*eA*e[5mC]*eA*dT*dT*dT*dG*dG*d[5mC]*dA*d[5mC]*d[5mC]*d[5mC]*eA*eA*e[5mC]*eA*e[5mC]) [compound 771755]
44

Check the records and state % inhibition of SMAD7 mRNA expression for 771779 (antisense eA*e[5mC]*eA*e[5mC]*eA*d[5mC]*dT*dG*d[5mC]*dT*dG*d[5mC]*d[5mC]*dT*dT*eT*eT*e[5mC]*eT*e[5mC]) [compound 771779]
53

Check the records and state % inhibition of SMAD7 mRNA expression for 771398 (antisense eG*eG*e[5mC]*eA*eG*dG*dA*dG*d[5mC]*dG*dG*d[5mC]*dG*dG*d[5mC]*eG*eG*e[5mC]*e[5mC]*e[5mC]) [compound 771398]
53

Check the records and state % inhibition of SMAD7 mRNA expression for 771452 (antisense eG*eG*eT*eA*eT*d[5mC]*dT*dG*dG*dA*dG*dT*dA*dA*dG*eG*eA*eG*eG*eG) [compound 771452]
25

Check the records and state % inhibition of SMAD7 mRNA expression for 771803 (antisense eA*eT*eG*eG*eA*dT*dA*d[5mC]*dT*dG*dA*d[5mC]*dT*d[5mC]*dA*eA*eG*eG*eA*e[5mC]) [compound 771803]
22

Check the records and state % inhibition of SMAD7 mRNA expression for 771436 (eG*eA*eG*e[5mC]*eA*dG*d[5mC]*dA*dG*d[5mC]*dT*d[5mC]*d[5mC]*dA*dG*e[5mC]*eT*eG*e[5mC]*e[5mC]; antisense) [compound 771436]
50

Check the records and state % inhibition of SMAD7 mRNA expression for 771835 (antisense eA*eG*eT*eA*eA*dA*dA*dT*dG*dG*dG*dA*dA*dA*dT*eA*eA*eG*eG*e[5mC]) [compound 771835]
17

Check the records and state % inhibition of SMAD7 mRNA expression for 771382 (antisense eA*eA*eA*eT*eA*dA*dA*dA*dA*d[5mC]*dA*d[5mC]*d[5mC]*dA*dA*eG*eA*eT*e[5mC]*e[5mC]) [compound 771382]
55

Check the records and state % inhibition of SMAD7 mRNA expression for 771731 (antisense eA*eA*eA*eA*e[5mC]*dT*dT*dT*dG*dT*dG*d[5mC]*d[5mC]*dT*dG*eT*eT*eT*e[5mC]*eA) [compound 771731]
44

Check the records and state % inhibition of SMAD7 mRNA expression for 771763 (antisense e[5mC]*e[5mC]*e[5mC]*e[5mC]*eG*dT*d[5mC]*d[5mC]*dA*d[5mC]*dG*dG*dA*dA*d[5mC]*eG*eG*eA*eT*e[5mC]) [compound 771763]
34
